# tested_on: CRBN-DDB1 (CRBN_DDB1.3) (Homo sapiens, UniProt Q96SW2)
# Sequence (Q96SW2 318-426 limits assumed): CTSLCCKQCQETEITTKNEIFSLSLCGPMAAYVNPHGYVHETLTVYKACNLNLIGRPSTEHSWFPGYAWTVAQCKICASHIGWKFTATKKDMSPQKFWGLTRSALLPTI
# method_summary: Fluorescence polarization (FP) binding assay, CRBN_DDB1.3 construct
# condition: 0.05% PA, 0.1% BSA; indoline binders; read-out: FP CRBN_DDB1.3 0.05% PA, 0.1% BSA ka nM
parameter_measured: Kd

compound="O=C1CC[C@@H](N2CCc3c(N4CCC5(CC4)OCCO5)cccc32)C(=O)N1 (single isomer, unassigned) [Compound 45-4]" result="< 100000 nM"
compound="O=C1CC[C@H](N2CCc3c(N4CCC(CCO)CC4)cccc32)C(=O)N1 (single isomer, unassigned) [Compound 42-5]" result="< 100000 nM"
compound="CC(C)(C)OC(=O)N1CCC(c2cc3c(cc2F)N([C@H]2CCC(=O)NC2=O)CC3)CC1 (single isomer, unassigned) [Compound 52-6]" result="< 1000 nM"
compound="CN(C(=O)OC(C)(C)C)[C@H]1CC[C@@H](c2c(F)cc3c(c2F)CCN3[C@H]2CCC(=O)NC2=O)CC1 (single isomer, unassigned) [Compound 55-6]" result="< 100000 nM"
compound="CN(C(=O)OC(C)(C)C)[C@H]1CC[C@H](c2c(F)cc3c(c2F)CCN3[C@@H]2CCC(=O)NC2=O)CC1 (single isomer, unassigned) [Compound 55-5]" result="< 100000 nM"
compound="O=C1CC[C@@H](N2CCc3c(N4CCC(CCO)CC4)cccc32)C(=O)N1 (single isomer, unassigned) [Compound 42-6]" result="< 1000 nM"
compound="CN(C(=O)OC(C)(C)C)[C@H]1CC[C@@H](c2c(F)ccc3c2CCN3C2CCC(=O)NC2=O)CC1 (single isomer, unassigned) [Compound 46-9b]" result="< 100000 nM"
compound="CC(C)(C)OC(=O)N1CC[C@H]2CN(c3cccc4c3CCN4[C@@H]3CCC(=O)NC3=O)CC[C@H]21 (single isomer, unassigned) [Compound 56-9a]" result="< 100000 nM"
compound="CC(C)(C)OC(=O)C1CCN(Cc2cccc3c2CCN3C2CCC(=O)NC2=O)CC1 (racemic) [Compound 54-5]" result="< 100000 nM"
compound="CC(C)(C)OC(=O)N1CCC(c2cc3c(cc2F)N([C@@H]2CCC(=O)NC2=O)CC3)CC1 (single isomer, unassigned) [Compound 52-7]" result="< 100000 nM"
compound="O=C1CCC(N2CCc3c(N4CCC(CCO)CC4)cccc32)C(=O)N1 (racemic) [Compound 42-4]" result="< 100000 nM"
compound="CC(C)(C)OC(=O)CC1(O)CCN(c2cccc3c2CCN3[C@@H]2CCC(=O)NC2=O)CC1 (single isomer, unassigned) [Compound 38-7]" result="< 1000 nM"
compound="CC(C)(C)OC(=O)C1CCN(Cc2cccc3c2CCN3[C@H]2CCC(=O)NC2=O)CC1 (single isomer, unassigned) [Compound 54-6]" result="< 100000 nM"
compound="CC(C)(C)OC(=O)CC1(O)CCN(c2cccc3c2CCN3[C@H]2CCC(=O)NC2=O)CC1 (single isomer, unassigned) [Compound 38-6]" result="< 100000 nM"
